Task for the reader: assign each of the following compounds its reported melting point.
Counter-ions that a name gives are not always drawn.

Request: Requested field: melting point. Item: CNC(=O)c1cc(COC(=O)N2CCC3(CC2)CC(Oc2ccc(Cl)cc2)C3)on1 [Compound 3]
Result: 147 to 149 °C

Request: Requested field: melting point. Item: CNC(=O)c1cc(COC(=O)N2CCC3(CC2)CC(Oc2ccc4ccncc4c2)C3)on1 [Compound 21]
Result: 79 to 81 °C

Request: Requested field: melting point. Item: `O=C(OCc1cscn1)N1CCC2(CC1)CC(Oc1ccc(Cl)cc1)C2`
Result: 86 to 88 °C

Request: Requested field: melting point. Item: NC(=O)c1cc(COC(=O)N2CCC3(CC2)CC(Oc2ccc(-c4ccc(F)cc4)cc2)C3)on1 [Compound 18]
Result: 163 to 165 °C

Request: Requested field: melting point. Item: CNC(=O)c1csc(COC(=O)N2CCC3(CC2)CC(Oc2cccc(-c4ccc(F)cc4)c2)C3)n1 [Compound 20]
Result: 130 to 132 °C

Request: Requested field: melting point. Item: CNC(=O)c1cc(COC(=O)N2CCC3(CC(Oc4ccc(Cl)c5ccccc45)C3)C2)on1 (single isomer, unassigned) [Compound 31]
Result: 87 to 92 °C

Request: Requested field: melting point. Item: NC(=O)c1cc(COC(=O)N2CC3(CC(Oc4ccc(Cl)c(F)c4)C3)C2)on1 [Compound 24]
Result: 135 to 137 °C

Request: Requested field: melting point. Item: CNC(=O)c1cc(COC(=O)N2CCC3(CC(Oc4ccc(-c5ccc(F)cc5)cc4)C3)C2)on1 (single isomer, unassigned) [Compound 33]
Result: 150 to 152 °C

Request: Requested field: melting point. Item: CCOc1ccc2ccc(OC3CC4(CCN(C(=O)OCc5cc(C(=O)NC)no5)CC4)C3)cc2c1 [Compound 8]
Result: 73 to 75 °C

Request: Requested field: melting point. Item: NC(=O)c1cc(COC(=O)N2CCC3(CC(Oc4ccc(Cl)c(F)c4)C3)C2)on1 (single isomer, unassigned) [Compound 26]
Result: 83 to 92 °C

Request: Requested field: melting point. Item: CNC(=O)c1cc(COC(=O)N2CCC3(CC2)CC(Oc2ccc(-c4ccc(F)cc4)cc2)C3)on1 [Compound 19]
Result: 174 to 176 °C

Request: Requested field: melting point. Item: CNC(=O)c1cc(COC(=O)N2CCC3(CC2)CC(Oc2ccc(Cl)c(F)c2)C3)on1 [Compound 22]
Result: 107 to 108 °C

Request: Requested field: melting point. Item: CNC(=O)c1cc(COC(=O)N2CCC3(CC(Oc4ccc(-c5ccc(F)cc5)cc4)C3)C2)on1 (single isomer, unassigned) [Compound 29]
Result: 135 to 137 °C

Request: Requested field: melting point. Item: NC(=O)c1cc(COC(=O)N2CCC3(CC(Oc4ccc(Cl)c5ccccc45)C3)C2)on1 (single isomer, unassigned) [Compound 30]
Result: 149 to 150 °C

Request: Requested field: melting point. Item: CNC(=O)c1cc(COC(=O)N2CCC3(CC(Oc4ccc(-c5ccc(F)cc5)cc4)C3)C2)on1 (single isomer, unassigned) [Compound 32]
Result: 149 to 151 °C

Request: Requested field: melting point. Item: NC(=O)c1coc(COC(=O)N2CCC3(CC(Oc4cccc(C(F)(F)F)c4)C3)C2)n1 (single isomer, unassigned) [Compound 14]
Result: 90 to 92 °C

Request: Requested field: melting point. Item: NC(=O)c1cc(COC(=O)N2CCC3(CC2)CC(Oc2ccc(Cl)c4ccccc24)C3)on1 [Compound 16]
Result: 75 to 77 °C

Request: Requested field: melting point. Item: CNC(=O)c1cc(COC(=O)N2CC3(CC(Oc4ccc(-c5ccc(F)cc5)cc4)C3)C2)on1 [Compound 25]
Result: 163 to 165 °C

Request: Requested field: melting point. Item: CNC(=O)c1cc(COC(=O)N2CCC3(CC(Oc4ccc(Cl)cc4)C3)C2)on1 (single isomer, unassigned)
Result: 94 to 97 °C

Request: Requested field: melting point. Item: CNC(=O)c1cc(COC(=O)N2CC3(CC(Oc4ccc(Cl)c(F)c4)C3)C2)on1 [Compound 23]
Result: 84 to 86 °C

Request: Requested field: melting point. Item: CCOc1ccc2ccc(OC3CC4(CCN(C(=O)OCc5cc(C(N)=O)no5)CC4)C3)cc2c1 [Compound 13]
Result: 114 to 116 °C

Request: Requested field: melting point. Item: CNC(=O)c1cc(COC(=O)N2CCC3(CC2)CC(Oc2ccc(Cl)c4ccccc24)C3)on1 [Compound 17]
Result: 62 to 64 °C

Request: Requested field: melting point. Item: NC(=O)c1cc(COC(=O)N2CCC3(CC2)CC(Oc2ccc(Cl)cc2)C3)on1 [Compound 4]
Result: 70 to 72 °C

Request: Requested field: melting point. Item: NC(=O)c1cc(COC(=O)N2CCC3(CC2)CC(Oc2cccc(-c4ccc(F)cc4)c2)C3)on1 [Compound 12]
Result: 74 to 76 °C

Request: Requested field: melting point. Item: NC(=O)c1cc(COC(=O)N2CCC3(CC(Oc4ccc(-c5ccc(F)cc5)cc4)C3)C2)on1 (single isomer, unassigned) [Compound 28]
Result: 131 to 133 °C

Request: Requested field: melting point. Item: Cn1ncnc1COC(=O)N1CCC2(CC1)CC(Oc1ccc(Cl)cc1)C2 (as salt: HCl)
Result: 163 to 165 °C
